tested on: T47D; assay: Antiproliferative activity against human T47D cells incubated for 72 hrs by microplate reader analysis; assay type: functional, cell-based
pIC50: −log10 of the molar value.
measured quantity: pIC50

Worked examples, 5 compounds total:
Oc1ccc(-c2c3c(nc4c2Cc2ccc(C(F)(F)F)cc2-4)-c2cc(C(F)(F)F)ccc2C3)cc1 :: < 4.30
Oc1ccc(-c2c3c(nc4c2Cc2ccc(O)cc2-4)-c2cc(O)ccc2C3)cc1 :: 5.28
Oc1cccc(-c2c3c(nc4c2Cc2cc(O)ccc2-4)-c2ccc(O)cc2C3)c1 :: < 4.30
Oc1cccc(-c2c3c(nc4c2Cc2c(O)cccc2-4)-c2cccc(O)c2C3)c1 :: < 4.30
Oc1cccc2c1Cc1c-2nc2c(c1-c1ccccc1)Cc1c(O)cccc1-2 :: 5.95

Reported T47D pIC50 for item c1ccc(-c2c3c(nc4c2Cc2ccccc2-4)-c2ccccc2C3)cc1 was < 4.30

Reported T47D pIC50 for item COc1cc([C@@H]2c3cc4c(cc3[C@@H](O[C@@H]3O[C@@H]5CO[C@@H](C)O[C@H]5[C@H](O)[C@H]3O)[C@H]3COC(=O)[C@H]23)OCO4)cc(OC)c1O [ETOPOSIDE] was 6.01

Reported T47D pIC50 for item Oc1ccc(-c2c3c(nc4c2Cc2c(F)cccc2-4)-c2cccc(F)c2C3)cc1 was < 4.30

----------
tested on: HeLa; test: Antiproliferative activity against human HeLa cells incubated for 72 hrs by microplate reader analysis; assay type: functional, cell-based
measured quantity: IC50 (µM)
Give the value in µM but do not write µM after it.

Worked examples, 2 compounds total:
Oc1cccc2c1-c1nc3c(c(-c4ccccc4OC(F)(F)F)c1C2)Cc1cccc(O)c1-3 :: 3.23
COc1cccc2c1C(=O)c1c(O)c3c(c(O)c1C2=O)C[C@@](O)(C(=O)CO)C[C@@H]3O[C@H]1C[C@H](N)[C@H](O)[C@H](C)O1 :: 1.68

With those in mind, consider the next compound.
The compound Oc1cccc2c1Cc1c-2nc2c(c1-c1ccco1)Cc1c(O)cccc1-2 showed IC50 equal to 9.63

----------
molecular target: DNA topoisomerase 2-alpha (Homo sapiens); experiment: Inhibition of human DNA topoisomerase 2 alpha at 20 uM using supercoiled pBR322 DNA as substrate incubated for 30 mins by EtBr staining based agarose gel electrophoresis method relative to control
Consider the following compounds and their measured inhibition readings.
Give the value in % but do not write % after it.

Worked examples, 4 compounds total:
Oc1ccc(-c2c3c(nc4c2Cc2cc(O)ccc2-4)-c2ccc(O)cc2C3)cc1 :: 55.7
Oc1ccc2c(c1)-c1nc3c(c(-c4ccccc4O)c1C2)Cc1ccc(O)cc1-3 :: 65.9
Oc1cccc2c1Cc1c-2nc2c(c1-c1ccco1)Cc1c(O)cccc1-2 :: 100
Oc1ccc2c(c1)-c1nc3c(c(-c4cccs4)c1C2)Cc1ccc(O)cc1-3 :: 4.7

With those in mind, consider the next compound.
The compound Oc1ccc2c(c1)Cc1c-2nc2c(c1-c1cccc(F)c1)Cc1cc(O)ccc1-2 showed inhibition equal to 3.2

----------
molecular target: UniProtKB P11388; test: Inhibition of human DNA topoisomerase 2 alpha at 20 uM using supercoiled pBR322 DNA as substrate incubated for 30 mins by EtBr staining based agarose gel electrophoresis method relative to control
Sequence (P11388 whole entry): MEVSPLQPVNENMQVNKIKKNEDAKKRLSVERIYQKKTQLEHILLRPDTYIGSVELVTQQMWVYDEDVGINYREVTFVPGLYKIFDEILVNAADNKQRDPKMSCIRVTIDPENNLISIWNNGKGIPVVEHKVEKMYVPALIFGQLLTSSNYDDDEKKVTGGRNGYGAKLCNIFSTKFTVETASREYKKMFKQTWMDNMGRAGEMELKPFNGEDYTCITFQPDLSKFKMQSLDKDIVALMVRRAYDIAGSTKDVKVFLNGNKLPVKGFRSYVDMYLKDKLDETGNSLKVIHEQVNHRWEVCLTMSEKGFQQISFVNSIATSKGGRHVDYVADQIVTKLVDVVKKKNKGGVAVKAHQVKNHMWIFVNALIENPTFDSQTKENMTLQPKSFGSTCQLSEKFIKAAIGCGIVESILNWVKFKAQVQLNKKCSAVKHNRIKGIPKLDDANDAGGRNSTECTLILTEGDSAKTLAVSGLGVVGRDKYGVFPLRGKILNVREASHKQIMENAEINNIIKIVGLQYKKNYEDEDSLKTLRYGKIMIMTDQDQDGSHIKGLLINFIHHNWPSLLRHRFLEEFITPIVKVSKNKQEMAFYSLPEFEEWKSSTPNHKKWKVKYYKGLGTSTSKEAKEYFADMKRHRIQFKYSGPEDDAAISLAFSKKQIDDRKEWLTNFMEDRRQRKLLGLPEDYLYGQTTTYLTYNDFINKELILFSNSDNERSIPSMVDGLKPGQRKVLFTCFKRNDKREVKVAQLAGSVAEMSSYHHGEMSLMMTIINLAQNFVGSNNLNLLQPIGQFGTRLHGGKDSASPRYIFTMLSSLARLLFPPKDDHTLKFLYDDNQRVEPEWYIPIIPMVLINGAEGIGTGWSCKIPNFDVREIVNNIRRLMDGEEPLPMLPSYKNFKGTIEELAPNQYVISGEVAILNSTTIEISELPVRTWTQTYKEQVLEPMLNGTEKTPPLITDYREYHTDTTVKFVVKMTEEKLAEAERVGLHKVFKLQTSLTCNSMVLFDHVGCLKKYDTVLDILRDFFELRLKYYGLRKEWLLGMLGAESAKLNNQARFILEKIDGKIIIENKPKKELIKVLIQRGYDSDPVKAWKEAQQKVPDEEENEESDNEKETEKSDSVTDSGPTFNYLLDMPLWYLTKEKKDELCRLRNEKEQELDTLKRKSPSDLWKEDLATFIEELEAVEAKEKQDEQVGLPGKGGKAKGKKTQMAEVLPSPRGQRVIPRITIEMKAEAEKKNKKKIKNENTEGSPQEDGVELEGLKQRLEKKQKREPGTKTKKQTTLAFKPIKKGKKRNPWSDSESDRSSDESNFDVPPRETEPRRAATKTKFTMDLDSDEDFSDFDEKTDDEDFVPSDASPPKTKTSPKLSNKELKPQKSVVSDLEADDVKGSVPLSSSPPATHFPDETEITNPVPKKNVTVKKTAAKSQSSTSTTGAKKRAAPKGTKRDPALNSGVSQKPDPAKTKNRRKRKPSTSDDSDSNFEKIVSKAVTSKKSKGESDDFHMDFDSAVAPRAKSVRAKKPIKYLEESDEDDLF
Please enter yes where inhibition is greater than or equal to 30%, and no where it is lower.

Here's what some known entries look like.
Oc1cccc(-c2c3c(nc4c2Cc2cc(O)ccc2-4)-c2ccc(O)cc2C3)c1 :: yes
Oc1ccc2c(c1)Cc1c-2nc2c(c1-c1cccc(Cl)c1)Cc1cc(O)ccc1-2 :: no
Oc1ccc2c(c1)Cc1c-2nc2c(c1-c1ccccc1O)Cc1cc(O)ccc1-2 :: no
Oc1ccccc1-c1c2c(nc3c1Cc1c(O)cccc1-3)-c1cccc(O)c1C2 :: yes
Oc1cccc2c1-c1nc3c(c(-c4ccccc4OC(F)(F)F)c1C2)Cc1cccc(O)c1-3 :: no
Oc1ccc(-c2c3c(nc4c2Cc2ccc(O)cc2-4)-c2cc(O)ccc2C3)cc1 :: yes
Oc1cccc2c1Cc1c-2nc2c(c1-c1ccccc1)Cc1c(O)cccc1-2 :: no
Oc1ccc(-c2c3c(nc4c2Cc2c(F)cccc2-4)-c2cccc(F)c2C3)cc1 :: no

Asked: Would you say Oc1ccc(-c2c3c(nc4c2Cc2ccc(C(F)(F)F)cc2-4)-c2cc(C(F)(F)F)ccc2C3)cc1 shows inhibition at minimum 30%?
Given back: no

Asked: Would you say Oc1ccc(-c2c3c(nc4c2Cc2cccc(O)c2-4)-c2c(O)cccc2C3)cc1 shows inhibition at minimum 30%?
Given back: yes

----------
target: DNA topoisomerase 1 (Homo sapiens) (UniProt P11387); experiment: Inhibition of human DNA topoisomerase 1 at 100 uM using supercoiled pBR322 DNA as substrate incubated for 30 mins by EtBr staining based agarose gel electrophoresis method relative to control
Sequence (P11387 whole entry): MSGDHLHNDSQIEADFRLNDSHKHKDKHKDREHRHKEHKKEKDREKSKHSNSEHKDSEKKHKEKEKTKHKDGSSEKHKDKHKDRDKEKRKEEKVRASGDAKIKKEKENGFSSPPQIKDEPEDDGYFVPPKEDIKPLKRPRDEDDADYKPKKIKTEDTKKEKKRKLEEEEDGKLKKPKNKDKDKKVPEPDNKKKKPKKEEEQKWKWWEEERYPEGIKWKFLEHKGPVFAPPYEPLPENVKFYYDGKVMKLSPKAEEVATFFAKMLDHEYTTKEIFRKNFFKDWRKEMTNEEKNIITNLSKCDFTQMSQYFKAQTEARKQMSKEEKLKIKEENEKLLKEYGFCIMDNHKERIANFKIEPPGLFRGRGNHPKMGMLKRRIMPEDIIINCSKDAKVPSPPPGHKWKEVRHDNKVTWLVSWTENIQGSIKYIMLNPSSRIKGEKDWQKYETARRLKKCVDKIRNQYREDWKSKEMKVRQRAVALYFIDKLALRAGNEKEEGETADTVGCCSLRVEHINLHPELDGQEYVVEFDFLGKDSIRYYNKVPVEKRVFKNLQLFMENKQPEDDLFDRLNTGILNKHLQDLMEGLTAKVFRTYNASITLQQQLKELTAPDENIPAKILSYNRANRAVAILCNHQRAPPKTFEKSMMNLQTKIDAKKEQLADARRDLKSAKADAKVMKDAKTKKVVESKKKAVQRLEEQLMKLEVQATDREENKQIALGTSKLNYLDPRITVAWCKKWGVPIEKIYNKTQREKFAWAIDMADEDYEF
Consider the following compounds and their measured inhibition readings.
Give the value in % but do not write % after it.

Worked examples, 5 compounds total:
Oc1cccc2c1Cc1c-2nc2c(c1-c1ccco1)Cc1c(O)cccc1-2 :: -0
Oc1cccc(-c2c3c(nc4c2Cc2c(O)cccc2-4)-c2cccc(O)c2C3)c1 :: -0
Oc1cccc2c1-c1nc3c(c(-c4ccsc4)c1C2)Cc1cccc(O)c1-3 :: -0
Oc1ccc2c(c1)Cc1c-2nc2c(c1-c1cccc(Cl)c1)Cc1cc(O)ccc1-2 :: -0
Oc1ccc2c(c1)Cc1c-2nc2c(c1-c1cccc(F)c1)Cc1cc(O)ccc1-2 :: -0

The compound Oc1ccc(-c2c3c(nc4c2Cc2c(F)cccc2-4)-c2cccc(F)c2C3)cc1 showed inhibition equal to -0

The compound Oc1cccc2c1Cc1c-2nc2c(c1-c1ccccc1)Cc1c(O)cccc1-2 showed inhibition equal to -0

The compound c1ccc(-c2c3c(nc4c2Cc2ccccc2-4)-c2ccccc2C3)cc1 showed inhibition equal to -0

The compound Oc1ccc(-c2c3c(nc4c2Cc2ccc(C(F)(F)F)cc2-4)-c2cc(C(F)(F)F)ccc2C3)cc1 showed inhibition equal to 7.1

The compound Oc1ccc2c(c1)-c1nc3c(c(-c4ccc(C(F)(F)F)cc4)c1C2)Cc1ccc(O)cc1-3 showed inhibition equal to -0

The compound Oc1ccc2c(c1)-c1nc3c(c(-c4cccs4)c1C2)Cc1ccc(O)cc1-3 showed inhibition equal to 0.4

The compound Oc1cccc2c1-c1nc3c(c(-c4ccccc4OC(F)(F)F)c1C2)Cc1cccc(O)c1-3 showed inhibition equal to -0

----------
tested on: HCT-15; test: Antiproliferative activity against human HCT-15 cells incubated for 72 hrs by microplate reader analysis; format: functional, cell-based; details: HCT-15, 72 h
measured quantity: IC50

The molecule c1ccc(-c2c3c(nc4c2Cc2ccccc2-4)-c2ccccc2C3)cc1 showed IC50 equal to > 50 µM

----------
Consider the following molecules and their measured IC50 readings.
test system: HeLa; test: Antiproliferative activity against human HeLa cells incubated for 72 hrs by microplate reader analysis; assay type: functional, cell-based
Give the value in µM but do not write µM after it.

Oc1ccc2c(c1)-c1nc3c(c(-c4ccc(C(F)(F)F)cc4)c1C2)Cc1ccc(O)cc1-3 :: 10.5
Oc1ccc2c(c1)Cc1c-2nc2c(c1-c1ccccc1O)Cc1cc(O)ccc1-2 :: 22.5
Oc1ccccc1-c1c2c(nc3c1Cc1c(O)cccc1-3)-c1cccc(O)c1C2 :: 2.1
Oc1ccc(-c2c3c(nc4c2Cc2ccc(O)cc2-4)-c2cc(O)ccc2C3)cc1 :: 20.4
COc1cc([C@@H]2c3cc4c(cc3[C@@H](O[C@@H]3O[C@@H]5CO[C@@H](C)O[C@H]5[C@H](O)[C@H]3O)[C@H]3COC(=O)[C@H]23)OCO4)cc(OC)c1O [ETOPOSIDE] :: 3.38
Oc1ccc(-c2c3c(nc4c2Cc2c(O)cccc2-4)-c2cccc(O)c2C3)cc1 :: 0.94
Oc1ccc2c(c1)-c1nc3c(c(-c4cccs4)c1C2)Cc1ccc(O)cc1-3 :: 0.93

With those in mind, consider the next molecule.
Reported HeLa IC50 for item Oc1cccc2c1Cc1c-2nc2c(c1-c1ccccc1)Cc1c(O)cccc1-2 was 0.59

----------
Consider the following molecules and their measured inhibition readings.
target: DNA topoisomerase 2-alpha (Homo sapiens); assay: Inhibition of human DNA topoisomerase 2 alpha at 100 uM using supercoiled pBR322 DNA as substrate incubated for 30 mins by EtBr staining based agarose gel electrophoresis method relative to control

Oc1ccc2c(c1)Cc1c-2nc2c(c1-c1ccccc1O)Cc1cc(O)ccc1-2 :: 93.3%
Oc1cccc(-c2c3c(nc4c2Cc2cccc(O)c2-4)-c2c(O)cccc2C3)c1 :: 26%

The molecule Oc1ccccc1-c1c2c(nc3c1Cc1cccc(O)c1-3)-c1c(O)cccc1C2 showed inhibition equal to -0%

The molecule Oc1ccccc1-c1c2c(nc3c1Cc1c(O)cccc1-3)-c1cccc(O)c1C2 showed inhibition equal to 77.1%

The molecule Oc1ccc2c(c1)-c1nc3c(c(-c4cccs4)c1C2)Cc1ccc(O)cc1-3 showed inhibition equal to 59.5%
